Entries annotated with measured TGI
Tested on: CCRF-CEM leukemia
PROTOCOL_DETAILS: NCI tumour cell line growth inhibition, 48 h
Field format: number, assumed µM, no unit text.

>>> numeric_result("O=C(O)c1c2c(c(O)c3c1CN(C1CCCCC1)CO3)OCN(C1CCCCC1)C2")
55.7
>>> numeric_result("c1ccc(CCCN2C3CCC2CN(CCOC(c2ccccc2)c2ccccc2)C3)cc1")
39.2
>>> numeric_result("COc1cccc2c1C(=O)c1c(O)c3c(c(O)c1C2=O)C[C@@](O)(/C(C)=N/NC(=O)c1cccc([N+](=O)[O-])c1)C[C@@H]3OC1CC(N)C(O)C(C)O1 (stereo partly specified)")
4.33

Okay, now this compound:
# input // lookup TGI for c1ccc2[nH]c(-c3ccc(Nc4nc(N5CCCC5)nc5[nH]ncc45)cc3)nc2c1
# output 0.967

====

System: MOLT-4 leukemia
PROTOCOL_DETAILS: NCI tumour cell line growth inhibition, 48 h
Entries annotated with measured GI50

>>> result("[O-]c1ccccc1C=NCCN=Cc1ccccc1[O-].[O]=[U+2]=[O]")
"53.7 µM"

# input // lookup GI50 for COC1C(OC(=O)/C=C/C=C/C=C/C=C/C(=O)O)CCC2(CO2)C1C1(C)OC1CC=C(C)C (stereo not given)
# output 0.347 µM

# input // lookup GI50 for O=c1[nH]c(=O)n(Cc2ccc(C34CC5CC(CC(C5)C3)C4)c(O)c2)cc1F
# output 12.4 µM

# input // lookup GI50 for COc1ccc2c(c1[N+](=O)[O-])CC[C@@H]1[C@@H]2CC[C@]2(C)C(=O)CC[C@@H]12
# output > 1000 µM

# input // lookup GI50 for C/C(=C1\C(=O)Nc2ccccc21)c1cccc(/C(C)=C2/C(=O)Nc3ccccc32)n1
# output 6.95 µM

====

Entries annotated with measured TGI
Test system: SF-539 CNS
PROTOCOL_DETAILS: NCI tumour cell line growth inhibition, 48 h
Field format: number, assumed µM, no unit text.

>>> numeric_result("C=C1C(=O)O[C@@H]2C[C@@]3(C)CCC[C@H](C)C3=C[C@H]12 (tested in a mixture with another compound)")
4.85
>>> numeric_result("C=C(C)[C@@H]1CC[C@]2(C(=O)OC)CC[C@]3(C)[C@H](CC[C@@H]4[C@@](C)(CCc5nn[nH]n5)[C@H](C(=C)C)CC[C@]43C)[C@@H]12")
30.7
>>> numeric_result("COc1cc(-c2csc(NC(=O)Nc3ccc(Cl)cc3)n2)cc(OC)c1OC")
13.7

Okay, now this molecule:
# input // lookup TGI for CCCCCOC(=O)c1c(C)[nH]c(/C=C2\N=C(c3ccc[nH]3)C=C2OC)c1C
# output 0.725

====

Entries annotated with measured TGI
System: MOLT-4 leukemia
PROTOCOL_DETAILS: NCI tumour cell line growth inhibition, 48 h

>>> result("Fc1ccc(/C=C2\\COCC3=C2NC(=S)NC3c2ccc(F)cc2)cc1 (stereo unspecified)")
"54 µM"

Okay, now this compound:
# input Tell me reported TGI for CCOP(=O)(OCC)/C(C#N)=C/c1nc[nH]c1C , tested with MOLT-4 leukemia.
# output > 100 µM

====

Entries annotated with measured TGI
Test system: SF-295 CNS
PROTOCOL_DETAILS: NCI tumour cell line growth inhibition, 48 h

# input Tell me reported TGI for CCOC(=O)Cn1nnc2ccc(Nc3nc4ccccc4nc3C(=O)OCC)cc21 , tested with SF-295 CNS.
# output > 100 µM

# input Tell me reported TGI for Cc1cccc(-c2nc(=S)[nH][nH]2)c1 , tested with SF-295 CNS.
# output > 100 µM

# input Tell me reported TGI for CCOC(=O)c1sc2nc(=S)[nH]c(NC(N)=S)c2c1C , tested with SF-295 CNS.
# output 65.8 µM

# input Tell me reported TGI for COC(=O)C12C(=O)CC3CCC1C32C(=O)OC (stereo not given) , tested with SF-295 CNS.
# output > 100 µM

# input Tell me reported TGI for Cc1c2ccccc2c(/C=N/NC(=O)CSCC(=O)N/N=C/c2c3ccccc3c(C)c3ccccc23)c2ccccc12 , tested with SF-295 CNS.
# output 49.9 µM

# input Tell me reported TGI for COc1ccc(C(O)C(c2ccc(OCc3ccccc3)cc2)c2ccc(OCc3ccccc3)cc2)cc1 (stereo not given) , tested with SF-295 CNS.
# output > 100 µM

# input Tell me reported TGI for CCOC(=O)CCCN , tested with SF-295 CNS.
# output > 100 µM

# input Tell me reported TGI for CN(C)c1ccc(-c2c(C#N)c(-c3ccccc3)n(NS(=O)(=O)c3ccccc3)c(=O)c2C#N)cc1 , tested with SF-295 CNS.
# output > 100 µM

# input Tell me reported TGI for CCOc1ccc2c(c1)[n+]([O-])c(-c1ccccc1)c(N)[n+]2[O-] , tested with SF-295 CNS.
# output > 100 µM

# input Tell me reported TGI for C/C(=C1\C(=O)Nc2ccccc21)c1cccc(/C(C)=C2/C(=O)Nc3ccccc32)n1 , tested with SF-295 CNS.
# output 85.4 µM

====

Test system: HT29 colon
PROTOCOL_DETAILS: NCI tumour cell line growth inhibition, 48 h
Entries annotated with measured TGI

>>> result("CCN1CC2=C(OC(N)=C(C#N)C2c2ccc(Cl)cc2)/C(=C/c2ccc(Cl)cc2)C1 (stereo not given)")
"> 100 µM"

# input Tell me reported TGI for C#CCOC(=O)C=[N+]=[N-] , tested with HT29 colon.
# output > 10 µM

# input Tell me reported TGI for O=S(=O)(c1ccccc1)N1CCC1c1ccccc1 (stereo not given) , tested with HT29 colon.
# output > 100 µM

# input Tell me reported TGI for CCOC(=O)c1nc2ccccc2nc1Nc1cc(OC)c(OC)c(OC)c1 , tested with HT29 colon.
# output > 100 µM

====

Tested on: OVCAR-4 ovarian
PROTOCOL_DETAILS: NCI tumour cell line growth inhibition, 48 h
Entries annotated with measured TGI

Field: example entries. Status: answers known.
>>> result("NC(=O)N/N=C(\\Cc1cc(=O)oc2cc(O)ccc12)C(=O)Nc1ccccc1C(N)=O")
"> 100 µM"
>>> result("Cc1cccc(-c2nc(=S)[nH][nH]2)c1")
"> 100 µM"

# input // lookup TGI for Nc1nc(N)c2cc(S(=O)(=O)c3cccc(C(F)(F)F)c3)ccc2n1
# output > 100 µM

# input // lookup TGI for COc1ccc(C(O)C(c2ccc(OCc3ccccc3)cc2)c2ccc(OCc3ccccc3)cc2)cc1 (stereo not given)
# output > 100 µM

# input // lookup TGI for CSC(=Nc1ccc([N+](=O)[O-])cc1C#N)NC(=O)c1ccccc1
# output > 100 µM

# input // lookup TGI for CCOC(=O)c1nc2ccccc2nc1Nc1cc(OC)c(OC)c(OC)c1
# output > 100 µM

# input // lookup TGI for CC(C)CC(NC(=O)C(O)C(N)Cc1ccccc1)C(=O)O (stereo not given)
# output > 100 µM

# input // lookup TGI for O=c1[nH]nc(-c2ccc3ccccc3c2)[nH]1
# output > 100 µM

# input // lookup TGI for O=C(Nc1ccc(Cl)cc1)c1cc(S(=O)(=O)Nc2nc3ncccc3[nH]2)c(SSc2cc(Cl)c(C(=O)Nc3ccc(Cl)cc3)cc2S(=O)(=O)Nc2nc3ncccc3[nH]2)cc1Cl
# output > 100 µM

# input // lookup TGI for Fc1ccc(F)c(C=NC23CC4CC(CC(C4)C2)C3)c1
# output > 10 µM

# input // lookup TGI for COc1ccc(C2c3cc4c(cc3OC(N3CCOCC3)C2C)OCO4)cc1OC (stereo not given)
# output > 100 µM

# input // lookup TGI for CCN(Cc1ccccc1)c1ccc(/C=C2\COc3ccccc3C2=O)cc1
# output > 1000 µM

====

Entries annotated with measured TGI
Test system: SW-620 colon
PROTOCOL_DETAILS: NCI tumour cell line growth inhibition, 48 h

>>> result("COc1cc2ncnc(Nc3cccc(Br)c3)c2cc1OC")
"> 50.2 µM"
>>> result("O=NN(CC1(O)OCC(O)C(O)C1O)C(Cc1c[nH]c2ccccc12)C(=O)O (stereo unspecified)")
"> 100 µM"
>>> result("CCOC(=O)c1ccc(N2C(=O)/C(=C/c3ccc(N(CCC#N)CCC#N)cc3)N=C2c2cc([N+](=O)[O-])ccc2Cl)cc1")
"> 100 µM"
>>> result("C[N+](C)(N)Cc1nc(-c2ccc(Cl)cc2)no1")
"> 100 µM"
>>> result("C#CCOC(=O)C=[N+]=[N-]")
"> 10 µM"

# input // lookup TGI for O=C(Nc1ccc(Nc2ccc3c(c2)C(=O)c2ccccc2C3=O)c2c1C(=O)c1ccccc1C2=O)c1ccccc1
# output > 100 µM

# input // lookup TGI for COc1cc(O)c2c(=O)c3cccc(C)c3[nH]c2c1
# output > 10 µM

# input // lookup TGI for Cn1c2ccccc2n2c(=O)c(-c3ccc(Cl)cc3)nnc12
# output > 100 µM

# input // lookup TGI for O=c1oc2ccccc2cc1P(=O)(O)O
# output > 100 µM
